target: Pdr11p (Saccharomyces cerevisiae); construct: gene PDR11; N-terminal FLAG-tagged Pdr11p, purified in DDM; assay: radiolabelled ATPase assay, dose-response with purified protein; assay type: biochemical
Sequence (P40550 whole entry): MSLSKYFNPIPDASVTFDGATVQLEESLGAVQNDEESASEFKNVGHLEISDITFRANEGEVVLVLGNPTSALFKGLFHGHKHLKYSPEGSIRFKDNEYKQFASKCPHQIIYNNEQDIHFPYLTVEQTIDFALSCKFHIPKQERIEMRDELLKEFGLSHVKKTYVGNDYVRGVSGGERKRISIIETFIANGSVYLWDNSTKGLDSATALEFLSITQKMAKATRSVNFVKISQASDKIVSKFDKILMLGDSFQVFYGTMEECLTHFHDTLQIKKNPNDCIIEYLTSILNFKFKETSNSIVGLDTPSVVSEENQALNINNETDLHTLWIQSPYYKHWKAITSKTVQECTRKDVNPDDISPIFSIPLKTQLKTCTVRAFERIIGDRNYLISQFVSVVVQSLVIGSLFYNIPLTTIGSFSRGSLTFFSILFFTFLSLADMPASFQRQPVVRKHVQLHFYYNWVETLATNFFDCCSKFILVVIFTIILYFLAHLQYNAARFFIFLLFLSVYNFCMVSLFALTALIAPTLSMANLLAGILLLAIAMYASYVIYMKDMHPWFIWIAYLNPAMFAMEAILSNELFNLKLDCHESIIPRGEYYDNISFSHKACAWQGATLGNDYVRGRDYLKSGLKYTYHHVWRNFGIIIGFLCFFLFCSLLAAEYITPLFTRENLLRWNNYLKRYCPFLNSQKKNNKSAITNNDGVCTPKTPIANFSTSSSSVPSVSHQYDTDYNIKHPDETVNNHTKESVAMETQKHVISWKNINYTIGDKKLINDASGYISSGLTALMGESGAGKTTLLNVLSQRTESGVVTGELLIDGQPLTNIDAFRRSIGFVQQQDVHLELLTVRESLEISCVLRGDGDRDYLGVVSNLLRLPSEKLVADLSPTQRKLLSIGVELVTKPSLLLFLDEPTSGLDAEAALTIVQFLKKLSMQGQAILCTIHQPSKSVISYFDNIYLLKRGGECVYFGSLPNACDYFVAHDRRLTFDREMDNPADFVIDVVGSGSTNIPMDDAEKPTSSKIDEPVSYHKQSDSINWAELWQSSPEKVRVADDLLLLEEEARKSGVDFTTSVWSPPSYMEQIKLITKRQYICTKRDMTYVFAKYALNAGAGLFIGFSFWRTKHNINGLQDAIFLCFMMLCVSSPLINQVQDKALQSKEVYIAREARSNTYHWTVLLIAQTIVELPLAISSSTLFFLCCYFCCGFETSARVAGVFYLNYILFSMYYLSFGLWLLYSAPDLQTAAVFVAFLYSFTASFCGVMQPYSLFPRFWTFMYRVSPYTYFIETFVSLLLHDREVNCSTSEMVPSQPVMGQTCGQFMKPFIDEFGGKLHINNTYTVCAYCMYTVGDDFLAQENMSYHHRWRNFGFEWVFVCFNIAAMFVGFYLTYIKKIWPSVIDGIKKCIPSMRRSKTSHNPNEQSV
measurement.kind: IC50

Problem: Supply measured IC50 of [O]=[V]([OH])([OH])[OH] [orthovanadate] in your reply.
Solution: 4 mM

Value source: paper PMC5602531
